B1: TPR 5TU (parent)
chain: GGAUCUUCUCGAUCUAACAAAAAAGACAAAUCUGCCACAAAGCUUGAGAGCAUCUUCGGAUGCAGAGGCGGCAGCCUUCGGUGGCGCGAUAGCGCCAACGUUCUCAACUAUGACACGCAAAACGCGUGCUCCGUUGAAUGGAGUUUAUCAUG

Variants of: B1
Test: polymerase ribozyme fitness, log enrichment relative to wild type (log ratio); higher = more active; in vitro selection for triplet polymerase activity
Variants at the floor of the assay were thinned out.
polymerase ribozyme fitness (log ratio) overview
observable: polymerase ribozyme fitness (log ratio)

[
  {
    "variant": "U15C A22C C51U G81U C85U G94A A122G",
    "observable": "polymerase ribozyme fitness (log ratio)",
    "bound-type": "=",
    "value-reported": -1.17
  },
  {
    "variant": "G62A G86A A122C",
    "observable": "polymerase ribozyme fitness (log ratio)",
    "bound-type": "=",
    "value-reported": -1.02
  },
  {
    "variant": "G143U G152A",
    "observable": "polymerase ribozyme fitness (log ratio)",
    "bound-type": "=",
    "value-reported": -3.69
  },
  {
    "variant": "U33G G68A C87G C108U A120C G136U",
    "observable": "polymerase ribozyme fitness (log ratio)",
    "bound-type": "≤",
    "value-reported": -4.2
  },
  {
    "variant": "U53A G83A",
    "observable": "polymerase ribozyme fitness (log ratio)",
    "bound-type": "=",
    "value-reported": -1.64
  },
  {
    "variant": "U55A A137G G141A",
    "observable": "polymerase ribozyme fitness (log ratio)",
    "bound-type": "=",
    "value-reported": -1.96
  },
  {
    "variant": "G34U A47G C57G G68A U102A",
    "observable": "polymerase ribozyme fitness (log ratio)",
    "bound-type": "≤",
    "value-reported": -4.2
  },
  {
    "variant": "A52C C93U U102G",
    "observable": "polymerase ribozyme fitness (log ratio)",
    "bound-type": "≤",
    "value-reported": -4.2
  },
  {
    "variant": "A17U C87U U90C C99G",
    "observable": "polymerase ribozyme fitness (log ratio)",
    "bound-type": "=",
    "value-reported": -3.69
  },
  {
    "variant": "G68C A89C C96A A113G G124C U134C",
    "observable": "polymerase ribozyme fitness (log ratio)",
    "bound-type": "≤",
    "value-reported": -4.2
  },
  {
    "variant": "C69A A121G",
    "observable": "polymerase ribozyme fitness (log ratio)",
    "bound-type": "=",
    "value-reported": -1.74
  },
  {
    "variant": "A40U A41U G46A C57A C87A G92U",
    "observable": "polymerase ribozyme fitness (log ratio)",
    "bound-type": "=",
    "value-reported": 0.0643
  },
  {
    "variant": "A64U C87A C95U U139A",
    "observable": "polymerase ribozyme fitness (log ratio)",
    "bound-type": "≤",
    "value-reported": -4.2
  },
  {
    "variant": "U13C A49C C93A",
    "observable": "polymerase ribozyme fitness (log ratio)",
    "bound-type": "≤",
    "value-reported": -4.2
  },
  {
    "variant": "A98U C105U",
    "observable": "polymerase ribozyme fitness (log ratio)",
    "bound-type": "=",
    "value-reported": 0.54
  },
  {
    "variant": "G84U A106G U109A A121U C131A G141A U145A",
    "observable": "polymerase ribozyme fitness (log ratio)",
    "bound-type": "≤",
    "value-reported": -4.2
  },
  {
    "variant": "A3C A16G A24U G48U G74U G83A A107C U130A",
    "observable": "polymerase ribozyme fitness (log ratio)",
    "bound-type": "≤",
    "value-reported": -4.2
  },
  {
    "variant": "A12G C85U C129A U151C",
    "observable": "polymerase ribozyme fitness (log ratio)",
    "bound-type": "≤",
    "value-reported": -4.2
  },
  {
    "variant": "U56G C85U",
    "observable": "polymerase ribozyme fitness (log ratio)",
    "bound-type": "=",
    "value-reported": -1.42
  },
  {
    "variant": "G140U G141C",
    "observable": "polymerase ribozyme fitness (log ratio)",
    "bound-type": "=",
    "value-reported": -3.07
  },
  {
    "variant": "A29G C95G U127G",
    "observable": "polymerase ribozyme fitness (log ratio)",
    "bound-type": "≤",
    "value-reported": -4.2
  },
  {
    "variant": "C38U A40G",
    "observable": "polymerase ribozyme fitness (log ratio)",
    "bound-type": "=",
    "value-reported": -2.26
  }
]
